- Test system: Spodoptera littoralis
- METHOD SUMMARY: Nutritional effect in Spodoptera littoralis L6 larvae assessed as food consumption at 20 ug/insect administered through oral cannulation after 72 hr relative to untreated control
- Assay type: functional
# maps each entry to its Activity
Provide only the numeric value, understood in %.

Some solved entries appear below for comparison.
MOLECULE: C=C1CCC[C@@H]2[C@@](C)(CC(OC(C)=O)/C(=C/COC(C)=O)COC(C)=O)[C@H](C)CC[C@@]12C (some centres undefined)
Activity, %: 93.02

MOLECULE: CC(=O)OC/C=C(\COC(C)=O)C(C[C@@]1(C)[C@H](C)CC[C@]2(C)[C@@H]1CCCC2(O)CO)OC(C)=O (some centres undefined)
Activity, %: 38.19

MOLECULE: C=C1CCC[C@@H]2[C@@](C)(C/C=C3/CC(OC(C)=O)OC3OC(C)=O)[C@H](C)CC[C@@]12C (some centres undefined)
Activity, %: 110.26

MOLECULE: C=C1CCC[C@@H]2[C@@](C)(C/C=C(/C=O)CC=O)[C@H](C)CC[C@@]12C
Activity, %: 95.56

MOLECULE: CC(=O)OC1C/C(=C/C[C@@]2(C)[C@H](C)CC[C@]3(C)[C@@H]2CCC[C@@]32CO2)C(OC(C)=O)O1 (some centres undefined)
Activity, %: 55.54

MOLECULE: C=C1CCC[C@@H]2[C@@](C)(C/C=C(\CC=O)C(C)=O)[C@H](C)CC[C@@]12C
Activity, %: 92.7

MOLECULE: C=C1CCC[C@@H]2[C@@](C)(CC(O)/C(=C/COC(C)=O)COC(C)=O)[C@H](C)CC[C@@]12C (some centres undefined)
Activity, %: 88.33

MOLECULE: CC(=O)OC/C=C(\COC(C)=O)C(C[C@@]1(C)[C@H](C)CC[C@]2(C)[C@@H]1CCCC21CO1)OC(C)=O (some centres undefined)
Activity, %: 39.74

// next entry
Query: For CC(=O)OC/C=C(\COC(C)=O)[C@@H](C[C@@]1(C)[C@H](C)CC[C@@]2(C)C(C)=CCC[C@H]12)OC(C)=O , what is its reported Activity?
Reply: 40.02

----------
- Test system: Leptinotarsa decemlineata
- METHOD SUMMARY: Antifeedant activity against Leptinotarsa decemlineata assessed as inhibition of feeding at 50 ug/cm2 by choice feeding assay relative to untreated control
- Type: functional
READOUT NAME: inhibition at 50 µg/cm2 (%)
Answer with a number only, understood to be in %.

COMPOUND: C=C1CCC[C@@H]2[C@@](C)(CC(O)/C(=C/COC(C)=O)COC(C)=O)[C@H](C)CC[C@@]12C (some centres undefined)
READOUT NAME: inhibition at 50 µg/cm2
MEASURED NUMBER: 61.4

COMPOUND: CC(=O)OC/C=C(\COC(C)=O)C(C[C@@]1(C)[C@H](C)CC[C@]2(C)[C@@H]1CCCC21CO1)OC(C)=O (some centres undefined)
READOUT NAME: inhibition at 50 µg/cm2
MEASURED NUMBER: 96.6

COMPOUND: C=C1CCC[C@@H]2[C@@](C)(C/C=C(/C=O)CC=O)[C@H](C)CC[C@@]12C [E-ISOLINARIDIAL]
READOUT NAME: inhibition at 50 µg/cm2
MEASURED NUMBER: 90.1

COMPOUND: C=C1CCC[C@@H]2[C@@](C)(CC(OC(C)=O)/C(=C/COC(C)=O)COC(C)=O)[C@H](C)CC[C@@]12C (some centres undefined)
READOUT NAME: inhibition at 50 µg/cm2
MEASURED NUMBER: 38.5

Query: Find the recorded inhibition at 50 µg/cm2 belonging to CC(=O)OC/C=C(\COC(C)=O)[C@@H](C[C@@]1(C)[C@H](C)CC[C@@]2(C)C(C)=CCC[C@H]12)OC(C)=O and report it.
Reply: 31.4
